experiment: Serum perhexiline levels; assay type: in vivo; details: human, Week 1, 100 mg twice daily with dose titration
measure: concentration at 1 week

{"molecule": "C1CCC(C(CC2CCCCN2)C2CCCCC2)CC1 (stereo not shown)", "measure": "concentration at 1 week", "value-measured": "570 ng/mL"}

====

experiment: Serum perhexiline levels; type: in vivo; settings: human, Week 8, 100 mg twice daily with dose titration

{"compound": "C1CCC(C(CC2CCCCN2)C2CCCCC2)CC1 (stereo not shown)", "measurement-units": "ng/mL", "concentration at 8 weeks": 430}
